Target: mouse ADAMTS7 (Mus musculus, UniProt Q68SA9)
Construct: Full-length mouse Adamts7 1-1857 (Uniprot Q68SA9, WT or E373Q catalytic mutant); expressed in transfected cells; host or cells: Human Coronary Artery Smooth Muscle Cells (HCA-SMC, Lonza), adenovirus 50 MOI
Sequence (Q68SA9 221-1657): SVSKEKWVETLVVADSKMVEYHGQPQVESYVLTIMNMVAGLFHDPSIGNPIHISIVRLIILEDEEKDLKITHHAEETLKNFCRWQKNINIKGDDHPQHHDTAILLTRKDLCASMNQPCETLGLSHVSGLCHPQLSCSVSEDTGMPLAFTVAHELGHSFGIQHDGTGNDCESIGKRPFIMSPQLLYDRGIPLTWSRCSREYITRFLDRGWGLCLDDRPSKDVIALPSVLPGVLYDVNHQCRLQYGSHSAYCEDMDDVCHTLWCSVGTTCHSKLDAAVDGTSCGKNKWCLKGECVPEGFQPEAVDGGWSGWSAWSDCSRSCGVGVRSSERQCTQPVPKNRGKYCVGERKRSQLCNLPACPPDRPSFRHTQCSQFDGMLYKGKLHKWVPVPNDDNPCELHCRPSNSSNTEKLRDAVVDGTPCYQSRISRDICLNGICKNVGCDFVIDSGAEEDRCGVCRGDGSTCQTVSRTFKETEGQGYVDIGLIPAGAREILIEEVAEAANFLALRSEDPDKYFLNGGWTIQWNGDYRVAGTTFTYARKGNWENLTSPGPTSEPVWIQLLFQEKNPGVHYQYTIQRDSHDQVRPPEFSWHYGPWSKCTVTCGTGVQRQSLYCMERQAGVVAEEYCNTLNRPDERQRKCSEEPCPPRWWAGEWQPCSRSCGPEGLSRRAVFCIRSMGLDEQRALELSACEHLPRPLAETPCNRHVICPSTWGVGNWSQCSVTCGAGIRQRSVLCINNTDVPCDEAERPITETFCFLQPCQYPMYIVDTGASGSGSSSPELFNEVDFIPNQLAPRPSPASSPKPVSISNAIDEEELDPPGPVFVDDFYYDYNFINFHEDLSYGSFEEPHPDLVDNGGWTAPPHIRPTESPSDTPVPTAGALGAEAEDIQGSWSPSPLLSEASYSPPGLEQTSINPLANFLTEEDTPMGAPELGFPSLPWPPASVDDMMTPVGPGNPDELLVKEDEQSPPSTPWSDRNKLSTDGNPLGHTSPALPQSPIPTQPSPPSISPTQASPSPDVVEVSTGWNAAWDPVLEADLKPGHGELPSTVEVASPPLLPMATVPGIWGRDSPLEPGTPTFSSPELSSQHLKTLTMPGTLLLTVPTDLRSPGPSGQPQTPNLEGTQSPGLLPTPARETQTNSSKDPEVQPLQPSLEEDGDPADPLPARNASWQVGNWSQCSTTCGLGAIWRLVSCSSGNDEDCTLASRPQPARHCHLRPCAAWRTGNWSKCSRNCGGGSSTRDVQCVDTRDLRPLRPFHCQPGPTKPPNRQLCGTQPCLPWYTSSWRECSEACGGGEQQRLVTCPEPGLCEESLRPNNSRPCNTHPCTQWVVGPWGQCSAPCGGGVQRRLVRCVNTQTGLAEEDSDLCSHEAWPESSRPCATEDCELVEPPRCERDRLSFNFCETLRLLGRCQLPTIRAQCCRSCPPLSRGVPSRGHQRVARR
Test: TMT10 TAILS N-terminomics, SMC2 experiment (process replicates, trypsin/AspN digest)
Format: cell-based
Conditions: SMC2_TAILS HC; log fold change of N-terminal peptide, Ad-mADAMTS7 WT over Luc
Assay Metric: logFC.mWT.over.Luc

Examples with their reported logFC.mWT.over.Luc follow.
INPUT: Write down logFC.mWT.over.Luc measured for item PLIN3_75 (VSGAQPILSKL; listed as Homo sapiens)
OUTPUT: 2.32

INPUT: Write down logFC.mWT.over.Luc measured for item LTBP2_79 (VAGLQPVER; listed as Homo sapiens)
OUTPUT: 1.54

I = PPP1R18_295 (LSETLTR; listed as Homo sapiens)
II = LTBP3_208 (FLVPLGPGQISA; listed as Homo sapiens)
III = LTBP1_393 (LTATNFR; listed as Homo sapiens)
INPUT: Please list these in order of increasing logFC.mWT.over.Luc. Thank you! Give me the labels in the order the question wants.
OUTPUT: II, I, III
